Recorded measurements of koff, one per entry
Target: T1, His-tagged human TIGIT (human, UniProt Q495A1 22-141)
T1 construct: SPR analyte; also called human TIGIT protein; not shown: His tag
T1 sequence: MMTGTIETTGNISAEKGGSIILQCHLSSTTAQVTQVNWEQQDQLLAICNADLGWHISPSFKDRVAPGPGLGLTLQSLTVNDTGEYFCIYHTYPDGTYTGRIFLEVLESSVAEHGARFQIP
Assay: SPR (Biacore T200), antibody captured, His-tagged TIGIT analyte
quantity_name: koff

>>> assay_value("huTIGIT-3-1 (antibody, human IgG1, kappa, V domains shown, Humanized IgG; also called 3VH3.M4 + 3VL4.M6) VH: EVQLVESGGGLVQPGGSLRLSCAASGFTFSSYGMSWVRQAPGKGLELVATIKSSGGSTNLADSVKGRFTISRDNSKNTLYLQMNSLRAEDTAVYYCVRGYFDYWGQGTTVTVSS VL: DIQMTQSPSSLSASVGDRVTITCRASQDIKTALAWYQQKPGKSPKLLIYWASTRQSGVPSRFSGSGSGTDFTLTISSLQPEDVATYYCQQYYSTPYTFGGGTKVEIKR")
"0.00031 s⁻¹"
>>> assay_value("TIGIT-19 chimeric antibody (antibody, human IgG1, kappa, V domains shown, also called 19VH + 19VL) VH: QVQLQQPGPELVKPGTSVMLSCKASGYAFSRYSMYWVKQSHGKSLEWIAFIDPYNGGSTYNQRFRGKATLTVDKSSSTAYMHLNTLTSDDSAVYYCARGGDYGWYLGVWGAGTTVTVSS VL: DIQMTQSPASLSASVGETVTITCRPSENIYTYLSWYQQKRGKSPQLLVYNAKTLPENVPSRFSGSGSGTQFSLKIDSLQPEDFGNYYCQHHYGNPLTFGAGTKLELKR")
"5.9e-05 s⁻¹"
>>> assay_value("huTIGIT-6-2 (antibody, human IgG1, kappa, V domains shown, Humanized IgG; also called 6VH6.M5 + 6VL1.M1) VH: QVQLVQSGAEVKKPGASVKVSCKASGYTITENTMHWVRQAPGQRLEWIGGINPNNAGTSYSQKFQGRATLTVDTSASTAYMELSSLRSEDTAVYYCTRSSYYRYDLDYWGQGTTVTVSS VL: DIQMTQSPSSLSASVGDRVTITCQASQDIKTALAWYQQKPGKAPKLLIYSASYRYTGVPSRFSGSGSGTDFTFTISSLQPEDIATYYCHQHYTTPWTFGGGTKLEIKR")
"9.6e-05 s⁻¹"
